Values were extracted from patent US20250304559A1.

ASSAY_TARGET: SARS-CoV-2 3CL protease (Severe acute respiratory syndrome coronavirus 2)
Construct: measures the activity of full-length SARS-CoV-2 3CL protease
ASSAY_INFO: SARS-CoV-2 Coronavirus 3C Protease FRET Assay
Type: biochemical
ASSAY_CONDITIONS: Examples 1-13; Morrison equation fit, 15 nM enzyme, 25 μM peptide substrate, 60 minutes at 23° C.; read-out: Geometric Mean Ki
pKi: −log10 of the molar value. Structures can show the parent of a compound that is named as a salt.
READOUT_NAME: pKi

COMPOUND	READOUT_NAME	RECORDED_NUMBER
CC(C)[C@H](NC(=O)C(F)(F)F)C(=O)N1C[C@H]2[C@@H]([C@H]1C(=O)N[C@H](C[C@@H]1CCNC1=O)C(=O)COc1ccc(F)cc1F)C2(C)C	pKi	6.76
Cn1nc(C(F)(F)F)cc1OCC(=O)[C@H](C[C@@H]1CCNC1=O)NC(=O)[C@@H]1[C@@H]2[C@H](CN1C(=O)[C@@H](NS(=O)(=O)C(F)(F)F)C(C)(C)C)C2(C)C	pKi	7.70
Cn1nc(C(F)(F)F)cc1OCC(=O)[C@H](C[C@@H]1CCNC1=O)NC(=O)[C@@H]1[C@@H]2[C@H](CN1C(=O)[C@@H](NC(=O)C(F)(F)F)C(C)(C)C)C2(C)C	pKi	8.54
CC(C)(C)[C@H](NS(=O)(=O)C(F)(F)F)C(=O)N1C[C@H]2[C@@H]([C@H]1C(=O)N[C@@H](C[C@@H]1CCNC1=O)C(=O)COc1ccc(F)cc1F)C2(C)C	pKi	8.46
CC(C)[C@H](NC(=O)C(F)(F)F)C(=O)N1C[C@H]2[C@@H]([C@H]1C(=O)N[C@@H](C[C@@H]1CCNC1=O)C(=O)COc1cc(C(F)(F)F)nn1C)C2(C)C [Example 9, trifluoroacetate salt]	pKi	7.37
